pIC50 values, listed per item
system: Prostaglandin G/H synthase 1 (Homo sapiens)
Sequence (P23219 whole entry): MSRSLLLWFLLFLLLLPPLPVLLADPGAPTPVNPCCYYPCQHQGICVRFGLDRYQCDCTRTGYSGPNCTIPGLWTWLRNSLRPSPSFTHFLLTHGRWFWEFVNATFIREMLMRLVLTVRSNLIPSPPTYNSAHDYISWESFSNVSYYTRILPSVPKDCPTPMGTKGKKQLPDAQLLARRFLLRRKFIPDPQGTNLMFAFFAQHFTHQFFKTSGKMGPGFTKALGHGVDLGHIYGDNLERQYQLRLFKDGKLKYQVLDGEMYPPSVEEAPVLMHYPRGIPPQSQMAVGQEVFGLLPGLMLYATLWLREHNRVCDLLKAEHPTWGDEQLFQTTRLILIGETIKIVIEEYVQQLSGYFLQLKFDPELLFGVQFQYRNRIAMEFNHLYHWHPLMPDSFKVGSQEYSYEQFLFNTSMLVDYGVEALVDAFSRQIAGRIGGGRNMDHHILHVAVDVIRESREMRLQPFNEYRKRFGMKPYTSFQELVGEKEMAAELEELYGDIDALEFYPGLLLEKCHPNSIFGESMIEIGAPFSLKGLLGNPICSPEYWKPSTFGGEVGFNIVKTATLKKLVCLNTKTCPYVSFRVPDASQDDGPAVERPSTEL
Lab note — pIC50 values are minus log10 of concentrations in M.

Reference set, count: 4
CS(=O)(=O)c1ccc(-c2cnn(Cc3cccs3)c(=O)c2-c2ccc(F)cc2)cc1 | 6.00
C[C@@H]1C[C@H]1Cn1ncc(-c2ccc(S(C)(=O)=O)cc2)c(-c2ccc(F)cc2)c1=O | 5.00
CS(=O)(=O)c1ccc(-c2cnn(C3CC3)c(=O)c2-c2ccc(F)cc2)cc1 | 5.00
CS(=O)(=O)c1ccc(-c2cnn(Cc3ccccc3)c(=O)c2Oc2ccc(F)cc2)cc1 | 6.00

Here is the next item to consider.
Lab note: need pIC50 with Prostaglandin G/H synthase 1 (Homo sapiens) for entry CS(=O)(=O)c1ccc(-c2cnn(Cc3ccccc3)c(=O)c2Sc2ccccc2)cc1 , please look it up.
5.00
